Biological target: T1, rat PAI-1 (rat, UniProt P20961 24-402)
T1 sequence: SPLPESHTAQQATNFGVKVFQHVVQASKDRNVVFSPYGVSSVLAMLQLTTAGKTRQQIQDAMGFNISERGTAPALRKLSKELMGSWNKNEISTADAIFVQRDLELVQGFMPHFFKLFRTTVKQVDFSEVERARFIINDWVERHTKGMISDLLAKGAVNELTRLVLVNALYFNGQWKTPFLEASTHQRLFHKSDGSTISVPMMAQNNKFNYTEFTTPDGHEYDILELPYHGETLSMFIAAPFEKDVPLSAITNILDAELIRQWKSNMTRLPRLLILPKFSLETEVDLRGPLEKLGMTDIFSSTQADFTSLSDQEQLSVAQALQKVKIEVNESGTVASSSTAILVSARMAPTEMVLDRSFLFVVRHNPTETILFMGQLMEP
Test: cell-based or functional assay
quantity name: Chromogenic IC50 ratio rat/human (fold)
// units = fold; emit number, no label

Consider the following illustrative entries.
{"columns": ["binder", "Chromogenic IC50 ratio rat/human, fold"],
 "data": [
  ["Antibody 19 scFv (scFv) QVQLQQSGAEVKKPGSSVKVSCKASGGTFSSYAISWVRQAPGQGLEWMGGIIPIFDTANYAQKFQGRVTITADESTSTAYMELSGLRSEDTAVYYCARERRQWLEGHFDYWGRGTPVTVSSDIRMTQSPSFLSASIGDRVTITCRASEGIYHELAWYQQKPGKAPKLLIYRASSLASGAPSRFSGSGSGTEFTLTISSLQPDDFATYYCQQYSNYPLTFGGGTKLEIK", 0.3],
  ["Antibody 06 scFv (scFv) QVQLQQSGAEVKKPGSSVKVSCKASGGTFSSYAISWVRQAPGQGLEWMGGIIPTFGTANYAQKFQGRVTITADESTSTAYMELSGLRSEDTAVYYCAREKRQWLEGHFDYWGRGTPVTVSSDIQMTQSPSFLSASIGDRVTITCRASEGIYHELAWYQQKPGKAPKLLIYRASSLASGAPSRFSGSGSGTDFTLTISSLQPDDFATYYCQQYSNYPLTFGRGTKLEIK", 0.5],
  ["Antibody 01 scFv (scFv) QVQLVQSGAEVKKPGSSVKVSCKASGGTFSSYAISWVRQAPGQGLEWMGGIIPIFGTANYAQKFQGRVTITADESTSTAYMELSSLRSEDTAVYYCAREKRQWLEGHFDYWGRGTLVTVSSDIQMTQSPSTLSASVGDRVTITCRASEGIYRSLAWYQQKPGKAPKLLIYKASSLASGVPSRFSGSGSGTEFTLTISSLQPDDFATYYCQQYSNYPLTFGGGTKVEIK", 60.5],
  ["Antibody 21 scFv (scFv) PVQLQQSGAEVKKPGSSVKVSCKASGGTFSSYAISWVRQAPGQGLEWMGGIIPTFGTANYAQKFQGRVTITADESTSTAYMELSGLRSEDTAVYYCAREKRQWLEGHFDYWGRGTPVTVSSDIQMAQSPSFLSASIGDRVTITCRASEGIYHNLAWYQQKPGKAPKLLIYRASSLASGAPSRFSGSGSGTDFTLTISSLQPDDFATYYCQQYSNYPLTFGGGTKLEIK", 12]
]}

Report Chromogenic IC50 ratio rat/human, nothing else, for this binder: Antibody 13 scFv (scFv) QVQLQQSGAEVKKPGSSVKVSCKASGGTFSSYAISWVRQAPGQGLEWMGGIIPTFGTANYAQKFQGRVTITADESTSTAYMELSDLRSEDTAVYYCAREKRQWLEGHFDYWGRGTPVTVSSDIQMTQSPSFLSASIGDRVTITCRASEGIYHSLAWYQQKPGKAPKLLIYRASSLASGAPSRFSGSGSGTDFTLTISSLQPDDFATYYCQQYSNYPLTFGGGTKLEIK
48.6
